Target: Ba/F3 Bcr-Abl/WT (Homo sapiens, UniProt P00519)
Construct: fused on or other part: P11274 (Breakpoint cluster region protein)
Sequence (P00519 whole entry, change not shown, the tested form may be a part): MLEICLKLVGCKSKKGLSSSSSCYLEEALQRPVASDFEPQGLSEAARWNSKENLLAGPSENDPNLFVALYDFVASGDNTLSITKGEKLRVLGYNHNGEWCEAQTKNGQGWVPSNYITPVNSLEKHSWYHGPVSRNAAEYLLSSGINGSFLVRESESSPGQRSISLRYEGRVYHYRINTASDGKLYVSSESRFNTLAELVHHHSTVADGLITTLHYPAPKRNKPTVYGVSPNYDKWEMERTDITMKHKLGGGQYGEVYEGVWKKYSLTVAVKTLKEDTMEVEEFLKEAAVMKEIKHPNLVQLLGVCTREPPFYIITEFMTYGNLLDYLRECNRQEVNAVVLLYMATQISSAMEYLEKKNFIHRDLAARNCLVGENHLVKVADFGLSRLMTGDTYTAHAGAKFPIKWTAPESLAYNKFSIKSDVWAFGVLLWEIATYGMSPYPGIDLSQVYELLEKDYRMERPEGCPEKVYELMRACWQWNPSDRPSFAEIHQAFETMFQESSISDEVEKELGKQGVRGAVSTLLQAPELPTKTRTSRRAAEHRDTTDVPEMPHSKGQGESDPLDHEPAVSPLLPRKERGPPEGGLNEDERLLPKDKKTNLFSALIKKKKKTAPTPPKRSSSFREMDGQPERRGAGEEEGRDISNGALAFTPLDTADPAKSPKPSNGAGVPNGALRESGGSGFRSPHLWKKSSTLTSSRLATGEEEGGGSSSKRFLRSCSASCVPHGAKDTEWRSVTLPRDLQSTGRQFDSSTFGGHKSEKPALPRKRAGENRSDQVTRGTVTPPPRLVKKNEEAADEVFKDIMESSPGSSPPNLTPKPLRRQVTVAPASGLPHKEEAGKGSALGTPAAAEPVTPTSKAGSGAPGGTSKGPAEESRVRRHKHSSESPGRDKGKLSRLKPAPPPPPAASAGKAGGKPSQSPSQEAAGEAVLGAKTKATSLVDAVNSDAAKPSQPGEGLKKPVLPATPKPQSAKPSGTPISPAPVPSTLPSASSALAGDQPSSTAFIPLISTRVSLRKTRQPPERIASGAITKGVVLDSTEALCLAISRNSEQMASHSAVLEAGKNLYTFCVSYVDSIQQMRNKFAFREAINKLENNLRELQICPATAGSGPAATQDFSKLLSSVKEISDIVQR
Assay: CCK-8 assay, Ba/F3 Bcr-Abl/WT
Assay type: cell-based
Conditions: CCK-8, 72 h, imatinib mesylate sensitive; read-out: Inhibitory concentration (IC50), Ba/F3 Bcr-Abl/WT
Protocol: The cell lines described in Table 3 were used to test the antiproliferative activity of test compounds. Cell Counting Kit-8 (CCK-8) allows very convenient assay by utilizing Dojindo's highly water-soluble tetrazolium salt. […] Plates were further incubated at 37° C., 5% CO2 incubator for 72 h. […] Measured the absorbance at 450 nm using a microplate reader. A. The percent inhibition and IC50 were calculated in comparison with control values.
quantity: GI50

Sample records with GI50:
smiles_repr: CC(C)OC(=O)C=Cc1ccc(O)c(O)c1
subject_of_test: Ba/F3 Bcr-Abl/WT (Homo sapiens, UniProt P00519)
result: 2.3 µM
//
smiles_repr: CN1CCC(N2CCN(C(=O)/C=C/c3ccc(O)c(O)c3)CC2)CC1
subject_of_test: Ba/F3 Bcr-Abl/WT (Homo sapiens, UniProt P00519)
result: > 30 µM
//
smiles_repr: CCCOC(=O)C=Cc1ccc(O)c(O)c1
subject_of_test: Ba/F3 Bcr-Abl/WT (Homo sapiens, UniProt P00519)
result: 2.4 µM
//
smiles_repr: O=C(C=Cc1ccc(O)c(O)c1)N1CCC(Cc2ccccc2)CC1
subject_of_test: Ba/F3 Bcr-Abl/WT (Homo sapiens, UniProt P00519)
result: 4.2 µM
//
smiles_repr: COC(=O)C=Cc1ccc(O)c(O)c1
subject_of_test: Ba/F3 Bcr-Abl/WT (Homo sapiens, UniProt P00519)
result: 7.9 µM

Just so you know, measured GI50 for CCOC(=O)C=Cc1ccc(O)c(O)c1 came out at 3.3 µM

Just so you know, measured GI50 for O=C(/C=C/c1ccc(O)c(O)c1)N1CCN(c2ccccc2)CC1 came out at 27 µM

Just so you know, measured GI50 for O=C(C=Cc1ccc(O)c(O)c1)N1CCN(Cc2ccccc2)CC1 came out at 2.8 µM

Just so you know, measured GI50 for CC(C)NC(=O)/C=C/c1ccc(O)c(O)c1 came out at 19.4 µM

Just so you know, measured GI50 for O=C(O)/C=C/c1ccc(O)c(O)c1 came out at > 100 µM

Just so you know, measured GI50 for CCN1CCN(C(=O)C=Cc2ccc(O)c(O)c2)CC1 came out at 40.6 µM

Source listed as patent US20100010002A1.
